System: P12-Ichikawa
Experiment: cell viability relative to DMSO control; higher = less cytotoxic
Conditions: RPMI 5 mM glucose + 10% FBS; 48 h; 0.00234 µM
experimental_readout: cell viability (%)
All answers are understood in %, so give the number only.

Request: Give reported cell viability value for CC(C)(C)c1[nH]cnc1/C=c1\[nH]c(=O)/c(=C/c2ccccc2)[nH]c1=O
Result: 97

---

System: SEM cells
Assay: cell viability relative to DMSO control; higher = less cytotoxic
Details: RPMI 5 mM glucose + 10% dialyzed FBS; 48 h; 0.0632 µM
experimental_readout: cell viability (%)
Use % as the unit, but write only the number.

Worked set:
compound	unit	cell viability
C[C@]12CCC(=O)C=C1CC[C@@H]1[C@@H]2CC[C@@]2(C)[C@H]1CC[C@]2(C)O	%	95.2
C[C@@H]1[C@H](O)[C@@H](C)/C=C/C=C/C=C/C=C/C=C/C=C/C=C/[C@H](O[C@@H]2O[C@H](C)[C@@H](O)[C@H](N)[C@@H]2O)C[C@@H]2O[C@](O)(C[C@@H](O)C[C@@H](O)[C@H](O)CC[C@@H](O)C[C@@H](O)CC(=O)O[C@H]1C)C[C@H](O)[C@H]2C(=O)O	%	114
C[C@@H]1CC[C@H]2[C@@H](C)C(=O)O[C@@H]3O[C@@]4(C)CC[C@@H]1[C@]32OO4	%	110
CCn1c(-c2nonc2N)nc2cnc(Oc3cccc(NC(=O)c4ccc(OCCN5CCOCC5)cc4)c3)cc21	%	108

Please find the next compound below.
Request: Provide one value: measured cell viability of CN(NC(=O)CC(=O)NN(C)C(=S)c1ccccc1)C(=S)c1ccccc1
Result: 10.5

---

This listing pairs compounds with measured cell viability.
Tested on: P12-Ichikawa
Test: cell viability relative to DMSO control; higher = less cytotoxic
Conditions: HPLM + 10% dialyzed FBS; 48 h; 0.569 µM
I only need the number, in %, no unit after it.

Examples from the recorded data:
> print(dat)
                                   compound  experimental.readout  unit  observed
1  CNC(=O)c1ccc(N2C(=S)N(c3ccc(C#N)c(C(F)(F)F)c3)C(=O)C23CCC3)cc1F        cell viability     %        97
2  CC(C)(C)c1[nH]cnc1/C=c1\[nH]c(=O)/c(=C/c2ccccc2)[nH]c1=O        cell viability     %      7.81
3  C[C@]12CC[C@@H]3c4ccc(O)cc4C[C@@H](CCCCCCCCC[S+]([O-])CCCC(F)(F)C(F)(F)F)[C@H]3[C@@H]1CC[C@@H]2O (stereo partly drawn)        cell viability     %       112
4  OC[C@H]1OCC(O1)[N@@]2C=CC(N)=NC2=O (stereo partly drawn)        cell viability     %       117
5  CN[C@@H]1[C@H](O)[C@H](NC)[C@H]2O[C@@]3(O)C(=O)C[C@@H](C)O[C@H]3O[C@@H]2[C@H]1O        cell viability     %       114

Request: Return cell viability (reported value) for this compound: FC1=CC=C(SC/2=N/N3\C=N/C(=O)/C(=C3/C=C2)C4=C(Cl)C=CC=C4Cl)C(=C1)F
Result: 117

Request: Using the record for O=C(O)C1=NC(C(=O)O)CC(/C=C/N2c3cc(O)c(OC4OC(CO)C(O)C(O)C4O)cc3CC2C(=O)O)=C1 (stereo not drawn) , state its measured cell viability.
Result: 106

Request: Consider the compound C[C@@H]\1CC(=O)N\N=C1C2=CC=C(NN=C(C#N)C#N)C=C2 . State its measured cell viability.
Result: 93.5
